Give viability, T/C for every item shown.
# Tested on: LG0567-F671-PDC complex spheroids viability;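 further: spheroids exposed to compound for seven days before readout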
# Assay details: Anticancer human tumor LG0567-F671-PDC patient-derived lung adenocarcinoma cell line growth inhibition [RAS]
# Recorded conditions: second compound 0.0949 µM; first compound 3.16 µM; hits give low values
# Source text: RAS pathway inhibitors in Combinations in Complex Spheroids A high-throughput screen of multi-cell type tumor spheroids was designed to identify active combinations of RAS pathway inhibitors and targeted small molecules. Complex spheroids include a stromal component modeled by human endothelial cells (HUVEC) and fibroblasts modeled by human mesenchymal stem cells (MSCs). […] Compounds. […] If the clinical Cmax for an agent had not been determined, the highest concentration tested was 10 microM. […]

Compound	Metric	Result
CC1(O)CCCC1n1c(=O)c(C(F)F)cc2cnc(NC3CCN(S(C)(=O)=O)CC3)nc21 (stereo unspecified) + CCn1c(-c2cccnc2C(C)OC)c2c3cc(ccc31)N1CCOC(CC(NC(=O)C(C(C)C)N(C)C(=O)C3(F)CCN(C(=O)C#CC(C)(C)N(C)C)CC3)C(=O)N3CCCC(N3)C(=O)OCC(C)(C)C2)C1	viability, T/C	18.6%

# return viability, T/C for each item in the list
1. CC(C)NCC(C(=O)N1CCN(c2ncnc3c2C(C)CC3O)CC1)c1ccc(Cl)cc1 (stereo unspecified) + CCn1c(-c2cccnc2C(C)OC)c2c3cc(ccc31)N1CCOC(CC(NC(=O)C(C(C)C)N(C)C(=O)C3(F)CCN(C(=O)C#CC(C)(C)N(C)C)CC3)C(=O)N3CCCC(N3)C(=O)OCC(C)(C)C2)C1
2. CC(=O)OC12COC1CC(O)C1(C)C(=O)C(O)C3=C(C)C(OC(=O)C(O)C(NC(=O)OC(C)(C)C)c4ccccc4)CC(O)(C(OC(=O)c4ccccc4)C21)C3(C)C (stereo unspecified) + CCn1c(-c2cc(N3CCN(C)CC3)cnc2C(C)OC)c2c3cc(ccc31)-c1csc(n1)CC(NC(=O)C1CC1C)C(=O)N1CCCC(N1)C(=O)OCC(C)(C)C2

1: 6.83%; 2: 2.34%

# return viability, T/C for each item in the list
1. Cc1nc(N2CCC3(CC2)COC(C)C3N)c(CO)nc1Sc1ccnc(N)c1Cl (stereo unspecified) + CCn1c(-c2cc(N3CCN(C)CC3)cnc2C(C)OC)c2c3cc(ccc31)-c1csc(n1)CC(NC(=O)C1CC1C)C(=O)N1CCCC(N1)C(=O)OCC(C)(C)C2
2. NC1c2ccccc2OC12CCN(c1cnc3c(N4CCCc5ncccc54)n[nH]c3n1)CC2 (stereo unspecified) + CCn1c(-c2cccnc2C(C)OC)c2c3cc(ccc31)N1CCOC(CC(NC(=O)C(C(C)C)N(C)C(=O)C3(F)CCN(C(=O)C#CC(C)(C)N(C)C)CC3)C(=O)N3CCCC(N3)C(=O)OCC(C)(C)C2)C1

["0.94%", "1.66%"]

# return viability, T/C for each item in the list
1. CCC(CC)c1cc(NC2CCC(N)C2)n2nccc2n1 (stereo unspecified) + CCn1c(-c2cc(N3CCN(C)CC3)cnc2C(C)OC)c2c3cc(ccc31)-c1csc(n1)CC(NC(=O)C1CC1C)C(=O)N1CCCC(N1)C(=O)OCC(C)(C)C2
2. CC(Nc1ccc2c(c1)OCCn1cc(N3C(=O)OCC3C(F)F)nc1-2)C(N)=O (stereo unspecified) + CCn1c(-c2cccnc2C(C)OC)c2c3cc(ccc31)N1CCOC(CC(NC(=O)C(C(C)C)N(C)C(=O)C3(F)CCN(C(=O)C#CC(C)(C)N(C)C)CC3)C(=O)N3CCCC(N3)C(=O)OCC(C)(C)C2)C1
3. CC(=O)OC12COC1CC(O)C1(C)C(=O)C(O)C3=C(C)C(OC(=O)C(O)C(NC(=O)OC(C)(C)C)c4ccccc4)CC(O)(C(OC(=O)c4ccccc4)C21)C3(C)C (stereo unspecified) + CCn1c(-c2cccnc2C(C)OC)c2c3cc(ccc31)N1CCOC(CC(NC(=O)C(C(C)C)N(C)C(=O)C3(F)CCN(C(=O)C#CC(C)(C)N(C)C)CC3)C(=O)N3CCCC(N3)C(=O)OCC(C)(C)C2)C1
4. CC(C)NCC(C(=O)N1CCN(c2ncnc3c2C(C)CC3O)CC1)c1ccc(Cl)cc1 (stereo unspecified) + CCn1c(-c2cc(N3CCN(C)CC3)cnc2C(C)OC)c2c3cc(ccc31)-c1csc(n1)CC(NC(=O)C1CC1C)C(=O)N1CCCC(N1)C(=O)OCC(C)(C)C2
5. CCC(CC)c1cc(NC2CCC(N)C2)n2nccc2n1 (stereo unspecified) + CCn1c(-c2cccnc2C(C)OC)c2c3cc(ccc31)N1CCOC(CC(NC(=O)C(C(C)C)N(C)C(=O)C3(F)CCN(C(=O)C#CC(C)(C)N(C)C)CC3)C(=O)N3CCCC(N3)C(=O)OCC(C)(C)C2)C1
6. CC(Nc1ccc2c(c1)OCCn1cc(N3C(=O)OCC3C(F)F)nc1-2)C(N)=O (stereo unspecified) + CCn1c(-c2cc(N3CCN(C)CC3)cnc2C(C)OC)c2c3cc(ccc31)-c1csc(n1)CC(NC(=O)C1CC1C)C(=O)N1CCCC(N1)C(=O)OCC(C)(C)C2
7. C[C@@H](NC(=O)c1ncnc(N)c1Cl)c1ncc(C(=O)Nc2cc(C(F)(F)F)c(Cl)cn2)s1 + CCn1c(-c2cc(N3CCN(C)CC3)cnc2C(C)OC)c2c3cc(ccc31)-c1csc(n1)CC(NC(=O)C1CC1C)C(=O)N1CCCC(N1)C(=O)OCC(C)(C)C2

["0.21%", "3.8%", "8.69%", "1.68%", "4.19%", "1.01%", "5.9%"]

# return viability, T/C for each item in the list
1. CC1(O)CCCC1n1c(=O)c(C(F)F)cc2cnc(NC3CCN(S(C)(=O)=O)CC3)nc21 (stereo unspecified) + CCn1c(-c2cc(N3CCN(C)CC3)cnc2C(C)OC)c2c3cc(ccc31)-c1csc(n1)CC(NC(=O)C1CC1C)C(=O)N1CCCC(N1)C(=O)OCC(C)(C)C2
2. NC1c2ccccc2OC12CCN(c1cnc3c(N4CCCc5ncccc54)n[nH]c3n1)CC2 (stereo unspecified) + CCn1c(-c2cc(N3CCN(C)CC3)cnc2C(C)OC)c2c3cc(ccc31)-c1csc(n1)CC(NC(=O)C1CC1C)C(=O)N1CCCC(N1)C(=O)OCC(C)(C)C2
3. C[C@@H](NC(=O)c1ncnc(N)c1Cl)c1ncc(C(=O)Nc2cc(C(F)(F)F)c(Cl)cn2)s1 + CCn1c(-c2cccnc2C(C)OC)c2c3cc(ccc31)N1CCOC(CC(NC(=O)C(C(C)C)N(C)C(=O)C3(F)CCN(C(=O)C#CC(C)(C)N(C)C)CC3)C(=O)N3CCCC(N3)C(=O)OCC(C)(C)C2)C1
4. Cc1nc(N2CCC3(CC2)COC(C)C3N)c(CO)nc1Sc1ccnc(N)c1Cl (stereo unspecified) + CCn1c(-c2cccnc2C(C)OC)c2c3cc(ccc31)N1CCOC(CC(NC(=O)C(C(C)C)N(C)C(=O)C3(F)CCN(C(=O)C#CC(C)(C)N(C)C)CC3)C(=O)N3CCCC(N3)C(=O)OCC(C)(C)C2)C1

1: 6.66%; 2: 0.98%; 3: 19.8%; 4: 2.61%
